# EXPERIMENTAL_SYSTEM: UniProt P35408
# Sequence (P35408 whole entry): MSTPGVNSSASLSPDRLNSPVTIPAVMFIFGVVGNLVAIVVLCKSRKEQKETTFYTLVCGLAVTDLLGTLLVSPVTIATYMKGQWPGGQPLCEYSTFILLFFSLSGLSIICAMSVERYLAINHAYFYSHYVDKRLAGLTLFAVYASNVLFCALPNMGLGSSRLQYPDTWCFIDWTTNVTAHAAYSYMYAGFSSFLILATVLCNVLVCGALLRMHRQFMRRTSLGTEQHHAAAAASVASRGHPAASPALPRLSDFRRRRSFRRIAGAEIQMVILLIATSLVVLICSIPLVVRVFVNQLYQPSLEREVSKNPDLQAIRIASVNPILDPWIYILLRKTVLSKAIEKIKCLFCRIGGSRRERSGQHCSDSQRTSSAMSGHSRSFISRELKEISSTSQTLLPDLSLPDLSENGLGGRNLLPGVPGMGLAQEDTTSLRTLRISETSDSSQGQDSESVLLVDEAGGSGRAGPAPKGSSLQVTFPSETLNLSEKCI
# METHOD: EP4 antagonistic activity measurement experiment using prostanoid receptor subtype expressing cells
# ASSAY_CONTEXT: CHO cells expressing human EP4 receptor; inhibition of cAMP production by PGE2 10 nM; 30 minutes at room temperature
# Description: CHO cells expressing human EP4 receptor subtypes were prepared according to the methods of Nishigaki et al. (Non-Patent Literature 4), and used for experiment. Cells cultured to subconfluent were detached, and suspended in an assay medium (MEM containing 1 mmol/L IBMX, 1% HSA) such that a concentration became 1×10^6 cells/mL. […] After 30 minutes of reaction at room temperature, the amount of cAMP in the cells was quantified according to the method in the descriptions of the cAMP assay kit (CISBIO). […]
MEASUREMENT_NAME: log10(IC50) (log10 of the value in nM)
Field: value | Transform: log10 | Quantity: IC50 | Unit: nM

Recorded results for 2 molecules are shown here.
[[record]]
molecule = "CNC(=O)c1ccc2c(C)cn(C(C)C(=O)Nc3cc(Cn4cnc(C5CC5)n4)ccc3CCCC(=O)O)c2c1 (single isomer, unassigned)"
meas_value = 0.40

[[record]]
molecule = "CNC(=O)c1ccc2c(C)cn(C(C)C(=O)Nc3cc(Cn4cc(C)c(C)n4)ccc3CCCC(=O)O)c2c1 (single isomer, unassigned)"
meas_value = 0.08


Look up log10(IC50) for the entries below, preserving their order.
1. Cc1cn(C(C)C(=O)Nc2cc(C#N)ccc2CCCC(=O)O)c2cc(C(=O)NC3CCCC3)ccc12 (single isomer, unassigned)
2. COCCNC(=O)c1ccc2c(C)cn(C(C)C(=O)Nc3cc(Cn4cc(C)cn4)ccc3CCCC(=O)O)c2c1 (single isomer, unassigned)
3. CNC(=O)c1ccc2c(C)cn(C(C)C(=O)Nc3cc(C(O)c4cnn(C)c4)ccc3CCCC(=O)O)c2c1 (stereo not shown)
4. COCCNC(=O)c1ccc2ccn(C(C)C(=O)Nc3cc(C#N)ccc3CCCC(=O)O)c2c1 (single isomer, unassigned)

**Result**
0.30
-0.15
0.79
0.57

# batch: return log10(IC50) for each of the 6 molecules below
1. CNC(=O)c1ccc2c(C)cn(C(C)C(=O)Nc3cc(Cn4cc(F)cn4)ccc3CCCC(=O)O)c2c1 (single isomer, unassigned)
2. CNC(=O)c1ccc2c(C)cn(C(C)C(=O)Nc3cc(Cn4cc(C(C)C)nn4)ccc3CCCC(=O)O)c2c1 (single isomer, unassigned)
3. CCCNC(=O)c1ccc2c(C)cn(C(C)C(=O)Nc3cc(Cn4cc(C)cn4)ccc3CCCC(=O)O)c2c1 (single isomer, unassigned)
4. CC(C(=O)Nc1cc(C#N)ccc1CCCC(=O)O)c1c[nH]c2ccccc12 (stereo not shown) [reference compound]
5. CNC(=O)c1ccc2c(C)cn(C(C)C(=O)Nc3cc(Oc4ccccc4)ccc3CCCC(=O)O)c2c1 (stereo not shown)
6. CNC(=O)c1ccc2c(C)cn(C(C)C(=O)Nc3cc(Cn4cnc(C(F)(F)F)n4)ccc3CCCC(=O)O)c2c1 (single isomer, unassigned)

**Result**
[0.43, 0.43, 0.32, 2.56, -0.10, 0.18]

Respectfully, I request log10(IC50) for each entry included below.
1. CNC(=O)c1ccc2c(c1)c(C)cn2C(C)C(=O)Nc1cc(Cn2cc(C)cn2)ccc1CCCC(=O)O (single isomer, unassigned)
2. CNC(=O)c1ccc2c(C)cn(C(C)C(=O)Nc3cc(Cn4nc(C)cc4C(F)(F)F)ccc3CCCC(=O)O)c2c1 (single isomer, unassigned)
3. CNC(=O)c1ccc2c(C)cn(C(C)C(=O)Nc3cc(COc4cc(C)nc(C)c4)ccc3CCCC(=O)O)c2c1 (stereo not shown)
4. Cc1cn(C(C)C(=O)Nc2cc(C#N)ccc2CCCC(=O)O)c2cc(C(=O)NCc3ccccc3)ccc12 (stereo not shown)
5. Cc1cnn(Cc2ccc(CCCC(=O)O)c(NC(=O)C(C)n3cc(C)c4ccc(C(=O)NC(C)C)cc43)c2)c1 (single isomer, unassigned)
6. CNC(=O)c1ccc2c(C)cn(C(C)C(=O)Nc3cc(CN4CCCS4(=O)=O)ccc3CCCC(=O)O)c2c1 (stereo not shown)
7. Cc1cnn(Cc2ccc(CCCC(=O)O)c(NC(=O)C(C)n3cc(C)c4ccc(C(=O)NCC5CC5)cc43)c2)c1 (single isomer, unassigned)

**Result**
[0.68, 0.26, 0.69, 0.60, 0.23, 1.43, 0.15]
